# target-entity: FGFR2 on SNU-16 gastric cancer cell line with FGFR2 amplification (UniProt P21802)
# protocol-description: row 'Kd (nM) (FACS)'; FACS on SNU-16 cells
Readings of Kd for the listed binders
Provide the reading as a plain figure in nM.

Answered cases to consult:
12433 (antibody, V domains shown, the duobody scheme implies IgG1 with K409R or F405L; also called Antibody F; N12433) VH: QVQLVQSGAEVKKPGESLKISCKGSGYSFTNYYIHWVRQMPGKGLEWMGAIYPDNSDTTYSPSFQGQVTISADKSISTAYLQWSSLKASDTAMYYCARGADIWGQGTLVTVSS VL: DIQMTQSPSSLSASVGDRVTITCRASQDIDPYLSNWYQQKPGKAPKLLIYDASNLQSGVPSRFSGSGSGTDFTLTISSLQPEDFATYYCQQTTSHPYTFGQGTKVEIK | 8.81
10164 (antibody, V domains shown, the duobody scheme implies IgG1 with K409R or F405L; also called Antibody C; N10164) VH: QVQLVESGGGLVKPGGSLRLSCAASGFTFSSYALSWVRQAPGKGLEWVGRIRSKIDGGTTDYAAPVKGRFTISRDDSKNTLYLQMNSLKTEDTAVYYCARDRSPSDSSAFAIWGQGTLVTVSS VL: DIELTQPPSVSVSPGQTASITCSGDNLGSQYVDWYQQKPGQAPVLVIYDDNDRPSGIPERFSGSNSGNTATLTISGTQAEDEADYYCQSWDSLSVVFGGGTKLTVLG | 0.13

Ask | Output Kd of M048-D01 (antibody, V domains shown, Parental bivalent monospecific antibody; also called Antibody A; Bayer) VH: EVQLLESGGGLVQPGGSLRLSCAASGFTFSSYAMSWVRQAPGKGLEWVSAISGSGTSTYYADSVKGRFTISRDNSKNTLYLQMNSLRAEDTAVYYCARVRYNWNHGDWFDPWGQGTLVTVSS VL: QSVLTQPPSASGTPGQRVTISCSGSSSNIGNNYVSWYQQLPGTAPKLLIYENYNRPAGVPDRFSGSKSGTSASLAISGLRSEDEADYYCSSWDDSLNYWVFGGGTKLTVLG
Reply | 30.7

Ask | Output Kd of 2B 1.3.12 (antibody, V domains shown, the duobody scheme implies IgG1 with K409R or F405L; also called Antibody D; GE) VH: EVQLVESGGGLVQPGGSLRLSCAASGFPFTSTGISWVRQAPGKGLEWVGRTHLGDGSTNYADSVKGRFTISADTSKNTAYLQMNSLRAEDTAVYYCARTYGIYDTYDMYTEYVMDYWGQGTLVTVSS VL: DIQMTQSPSSLSASVGDRVTITCRASQDVDTSLAWYKQKPGKAPKLLIYSASFLYSGVPSRFSGSGSGTDFTLTISSLQPEDFATYYCQQSTGHPQTFGQGTKVEIK
Reply | 1.78
